All values here come from patent US10005792B2.

For each entry below, report its pIC50 value.
Target: Full-length PRMT5 enzyme co-expressed with MEP50 (Homo sapiens (Human), UniProt O14744)
Sequence (O14744 whole entry): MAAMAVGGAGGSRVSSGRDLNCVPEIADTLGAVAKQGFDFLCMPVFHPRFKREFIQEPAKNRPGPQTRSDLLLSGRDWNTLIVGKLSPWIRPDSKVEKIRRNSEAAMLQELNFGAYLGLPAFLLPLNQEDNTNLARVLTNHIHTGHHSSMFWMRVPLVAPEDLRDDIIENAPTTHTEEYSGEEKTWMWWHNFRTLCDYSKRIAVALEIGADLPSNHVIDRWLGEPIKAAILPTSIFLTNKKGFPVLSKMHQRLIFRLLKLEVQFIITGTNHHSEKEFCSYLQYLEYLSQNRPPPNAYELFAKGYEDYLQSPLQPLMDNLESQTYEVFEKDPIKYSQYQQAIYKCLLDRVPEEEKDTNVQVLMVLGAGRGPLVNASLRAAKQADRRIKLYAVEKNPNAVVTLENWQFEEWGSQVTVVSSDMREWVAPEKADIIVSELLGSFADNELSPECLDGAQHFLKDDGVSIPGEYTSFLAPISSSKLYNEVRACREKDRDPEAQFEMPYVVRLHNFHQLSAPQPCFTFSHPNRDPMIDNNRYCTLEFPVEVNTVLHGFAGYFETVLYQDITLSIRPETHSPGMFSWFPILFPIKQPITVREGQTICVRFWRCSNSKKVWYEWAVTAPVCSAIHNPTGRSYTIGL
Sequence (Q9BQA1 whole entry partner): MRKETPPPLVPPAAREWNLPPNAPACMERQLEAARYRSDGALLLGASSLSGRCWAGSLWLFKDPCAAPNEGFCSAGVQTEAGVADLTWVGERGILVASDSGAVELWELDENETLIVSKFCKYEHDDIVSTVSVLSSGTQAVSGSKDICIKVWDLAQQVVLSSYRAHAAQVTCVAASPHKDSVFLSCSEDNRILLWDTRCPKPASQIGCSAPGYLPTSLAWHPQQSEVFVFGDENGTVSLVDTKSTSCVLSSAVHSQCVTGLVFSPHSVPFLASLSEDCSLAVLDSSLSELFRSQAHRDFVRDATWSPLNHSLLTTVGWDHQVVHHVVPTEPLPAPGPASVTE
Assay: Revised PRMT5 Biochemical Assay
Conditions: 1 μM histone H4 derived peptide substrate, 1 μM S-Adenosyl methionine, 4 hours at 37 degree Celsius, Transcreener EPIGEN fluorescence polarisation
Numbers only, as −log10 of the molar value.

Answered examples (3):
- COMPOUND: "CC(=O)N1CC2CCC(C1)C2Nc1cccc(C(=O)NC[C@@H](O)CNC2Cc3ccccc3C2)c1 (stereo partly shown)"
  MEASURED ATTRIBUTE: "pIC50"
  READOUT VALUE: 6.11
- COMPOUND: "C[C@H]1COCCN1C(=O)c1ccc(C(=O)NC[C@@H](O)CNC2Cc3ccccc3C2)cc1"
  MEASURED ATTRIBUTE: "pIC50"
  READOUT VALUE: 6.51
- COMPOUND: "O=C(NC[C@@H](O)CNC1Cc2ccccc2C1)c1cccc(C(=O)N2CCOCC2)c1"
  MEASURED ATTRIBUTE: "pIC50"
  READOUT VALUE: 5.16

Next, consider the following compound.
Q: Request the reported pIC50 associated with `COc1cc(C(=O)N2CCOCC2)ccc1C(=O)NC[C@@H](O)CNC1Cc2ccccc2C1`
A: 6.55

====

Molecular target: Full-length PRMT5 enzyme co-expressed with MEP50 (Homo sapiens (Human))
Test: Revised PRMT5 Biochemical Assay
Conditions: 1 μM histone H4 derived peptide substrate, 1 μM S-Adenosyl methionine, 4 hours at 37 degree Celsius, Transcreener EPIGEN fluorescence polarisation
MEASURED ATTRIBUTE: IC50 (µM)
One number for each entry, in µM.

Please state IC50 for every molecule in the list that follows.
1. CCOc1cc(C(=O)N2C3CCC2COC3)c(F)cc1C(=O)NC[C@@H](O)CNC1Cc2ccccc2C1
2. CC(=O)N1CCc2ccc(C(=O)NCC(O)CNC3Cc4ccccc4C3)cc2C1 (racemic)
3. O=C(NCC(O)CNC1Cc2ccccc2C1)c1ccnc(N2CCOCC2)c1 (stereo not shown)
4. O=C(NCC(O)CNC1Cc2ccccc2C1)c1ccc2c(c1)CN(C(=O)CC1CC1)CC2 (racemic)
5. CCCOc1ccccc1C(=O)NCC(O)CNC1Cc2ccccc2C1 (racemic)
6. C[C@@H]1COC[C@@H](C)N1C(=O)c1ccc(C(=O)NCC(O)CNC2Cc3ccccc3C2)cc1 (mixture of isomers)
7. NC(=O)C(CNC(=O)c1ccc(C(=O)N2CCOCC2)cc1)CNC1Cc2ccccc2C1 (stereo not shown)
8. O=C(NCC(O)CNC1Cc2ccccc2C1)c1ccc2c(c1)CCN(C(=O)CC1CC1)C2 (racemic)

A:
1: 0.695; 2: 0.733; 3: 11.4; 4: 0.505; 5: 4.38; 6: 0.457; 7: 52.2; 8: 1.35

====

Molecular target: Full-length PRMT5 enzyme co-expressed with MEP50 (Homo sapiens (Human))
Test: Revised PRMT5 Biochemical Assay
Conditions: 1 μM histone H4 derived peptide substrate, 1 μM S-Adenosyl methionine, 4 hours at 37 degree Celsius, Transcreener EPIGEN fluorescence polarisation
pIC50: −log10 of the molar value. Structures can show the parent of a compound that is named as a salt.
Y means recorded pIC50 is 6 or above; N means it is below 6.

- MOLECULE: "CCOc1cc(C(=O)N2C[C@H]3C[C@@H]2CO3)ccc1C(=O)NC[C@@H](O)CNC1Cc2ccccc2C1 [Compound 127]"
  CLASS LABEL: "Y"
- MOLECULE: "O=C(NC[C@@H](O)CNC1Cc2ccccc2C1)c1ccc(C(=O)N2C3CCC2COC3)cc1Cl [Compound 121]"
  CLASS LABEL: "Y"
- MOLECULE: "CCOc1cc(C(=O)N2CCOCC2)ccc1C(=O)NC[C@@H](O)CNC1Cc2ccccc2C1 [Compound 75]"
  CLASS LABEL: "Y"
- MOLECULE: "CC(=O)N1CCC(Nc2cncc(C(=O)NCC(O)CNC3Cc4ccccc4C3)c2)CC1 (centres unmarked) [Compound 53]"
  CLASS LABEL: "Y"
- MOLECULE: "CCOc1cc(C(=O)N2C3CCC2COC3)ncc1C(=O)NC[C@@H](O)CNC1Cc2ccccc2C1 [Compound 126, dihydrochloride]"
  CLASS LABEL: "Y"
- MOLECULE: "O=C(NCC(O)CNC1Cc2ccccc2C1)c1ccc(C(=O)N2CCCCC2)nc1 (racemic) [Compound 67]"
  CLASS LABEL: "N"
- MOLECULE: "O=C(NCC(O)CNC1Cc2ccccc2C1)c1ccc(N2CCCCC2=O)cc1 (centres unmarked) [Compound 63]"
  CLASS LABEL: "N"
- MOLECULE: "O=C(NC[C@@H](O)CNC1Cc2ccccc2C1)c1ccccc1C(F)F [Compound 137]"
  CLASS LABEL: "N"
- MOLECULE: "CS(=O)(=O)Nc1cccc(C(=O)NC[C@@H](O)CNC2Cc3ccccc3C2)c1 [Compound 140]"
  CLASS LABEL: "N"
- MOLECULE: "CCOc1cc(C(=O)N2CCCC2)ccc1C(=O)NC[C@@H](O)CNC1Cc2ccccc2C1 [Compound 76]"
  CLASS LABEL: "Y"

Q: Identify whether the reported pIC50 of the following molecule is 6 or greater: COc1cc(CC(=O)N2CCOCC2)ccc1C(=O)NC[C@@H](O)CNC1Cc2ccccc2C1 [Compound 87]
A: N

Q: What about O=C(NC[C@@H](O)CNC1Cc2ccccc2C1)c1ccc(C(=O)N2CCC3(CCO3)CC2)cc1 [Compound 88] ?
A: Y
